Target: Cholinesterase (Equus caballus)
Sequence (P81908 whole entry): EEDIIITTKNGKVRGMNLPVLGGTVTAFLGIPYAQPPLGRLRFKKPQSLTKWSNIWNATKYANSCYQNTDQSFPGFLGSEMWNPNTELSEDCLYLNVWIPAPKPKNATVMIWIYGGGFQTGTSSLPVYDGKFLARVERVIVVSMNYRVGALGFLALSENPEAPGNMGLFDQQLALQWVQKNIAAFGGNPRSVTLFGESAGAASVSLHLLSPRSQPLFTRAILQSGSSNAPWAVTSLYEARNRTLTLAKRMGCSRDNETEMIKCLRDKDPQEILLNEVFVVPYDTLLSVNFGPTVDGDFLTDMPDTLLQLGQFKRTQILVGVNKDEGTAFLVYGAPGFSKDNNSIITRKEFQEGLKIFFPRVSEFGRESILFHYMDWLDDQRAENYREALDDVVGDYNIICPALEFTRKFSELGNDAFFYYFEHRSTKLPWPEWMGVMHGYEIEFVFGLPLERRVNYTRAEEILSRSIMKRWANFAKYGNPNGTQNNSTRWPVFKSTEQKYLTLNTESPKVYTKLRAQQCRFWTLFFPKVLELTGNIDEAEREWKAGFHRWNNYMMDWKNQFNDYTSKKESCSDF
Test: Competitive inhibition of equine serum BChE using butyrylthiocholine iodide as substrate assessed as steady state inhibition constant preincubated for 10 mins followed by substrate addition by Lineweaver-Burk double reciprocal plot analysis
Values of Ki strictly less than 600 nM map to T, and values of at least 600 nM map to F.

The following molecules have reported results that may help.
CC(C)(C)c1ccc(CN(Cc2ccccc2)C2=NCC(CI)S2)cc1.I (stereo not given) | T
Clc1ccc(CN(Cc2cccnc2)C2=NCC(CI)S2)cc1.I (stereo not given) | F
Br.Clc1ccc(CN(Cc2cccnc2)C2=NCC(CBr)S2)cc1 (stereo not given) | F
CC(C)c1ccc(CN(Cc2ccccc2)C2=NCC(CI)S2)cc1.I (stereo not given) | F

Now consider the entry below.
Take the molecule Br.CC(C)(C)c1ccc(CN(Cc2ccccc2)C2=NCC(CBr)S2)cc1 (stereo not given) and say whether its Ki is less than 600 nM.
F

###

Biological target: UniProt Q29550
Test: Inhibition of porcine liver carboxylesterase using 4-nitrophenol acetate as substrate by spectrophotometric analysis
Conditions: read-out: IC50
quantity: IC50 (µM)
I only need the number, in µM, no unit after it.

Worked set:
Clc1ccccc1CN(Cc1ccccc1)C1=NCC(CI)S1.I (stereo unspecified) | 117
Fc1ccc(CN(Cc2ccccc2)C2=NCC(CI)S2)cc1.I (stereo unspecified) | 80

For the next question, use this molecule.
Recall the reported IC50 of I.ICC1CN=C(N(Cc2ccccc2)Cc2ccco2)S1 (stereo unspecified) when tested on UniProt Q29550.
131

###

Target: Cholinesterase (Equus caballus)
Experiment: Noncompetitive inhibition of equine serum BChE using butyrylthiocholine iodide as substrate assessed as steady state inhibition constant preincubated for 10 mins followed by substrate addition by Lineweaver-Burk double reciprocal plot analysis
// reported pKi for each item listed
Please treat pKi as minus the base-10 logarithm of the molar concentration.

CC(C)c1ccc(CN(Cc2ccccc2)C2=NCC(CI)S2)cc1.I (centres undefined) | 5.12

Recall the reported pKi of Br.Clc1ccc(CN(Cc2cccnc2)C2=NCC(CBr)S2)cc1 (centres undefined) when tested on Cholinesterase (Equus caballus).
4.70

Recall the reported pKi of Clc1ccc(CN(Cc2cccnc2)C2=NCC(CI)S2)cc1.I (centres undefined) when tested on Cholinesterase (Equus caballus).
5.44

Recall the reported pKi of CC(C)(C)c1ccc(CN(Cc2ccccc2)C2=NCC(CI)S2)cc1.I (centres undefined) when tested on Cholinesterase (Equus caballus).
5.92

###

Target: Liver carboxylesterase (Sus scrofa, UniProt Q29550)
Sequence (Q29550 whole entry): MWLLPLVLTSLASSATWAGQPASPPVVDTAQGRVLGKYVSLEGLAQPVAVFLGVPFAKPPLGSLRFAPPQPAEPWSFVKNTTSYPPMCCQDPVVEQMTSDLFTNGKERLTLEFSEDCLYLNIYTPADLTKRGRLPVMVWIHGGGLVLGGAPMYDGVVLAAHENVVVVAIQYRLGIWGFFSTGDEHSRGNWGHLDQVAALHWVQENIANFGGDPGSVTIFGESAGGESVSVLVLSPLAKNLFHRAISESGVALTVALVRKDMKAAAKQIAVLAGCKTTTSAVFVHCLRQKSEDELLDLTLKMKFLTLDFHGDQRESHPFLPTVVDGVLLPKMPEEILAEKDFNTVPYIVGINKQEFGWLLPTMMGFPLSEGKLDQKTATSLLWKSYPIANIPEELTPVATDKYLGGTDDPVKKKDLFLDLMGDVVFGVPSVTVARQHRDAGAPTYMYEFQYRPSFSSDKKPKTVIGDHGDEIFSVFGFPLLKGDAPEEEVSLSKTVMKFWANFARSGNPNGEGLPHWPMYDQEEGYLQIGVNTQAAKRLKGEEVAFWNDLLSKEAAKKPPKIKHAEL
Test: Noncompetitive inhibition of porcine liver carboxylesterase using 4-nitrophenol acetate as substrate assessed as steady state inhibition constant preincubated for 10 mins followed by substrate addition by Lineweaver-Burk double reciprocal plot analysis
Values of Ki strictly less than 4000 nM map to 1, and values of at least 4000 nM map to 0.

The following molecules have reported results that may help.
Br.CC(C)c1ccc(CN(Cc2ccccc2)C2=NCC(CBr)S2)cc1 (stereo unspecified) | 1
COc1ccc(CN(Cc2ccccc2)C2=NCC(CI)S2)cc1.I (stereo unspecified) | 0
Br.CC(C)(C)c1ccc(CN(Cc2ccccc2)C2=NCC(CBr)S2)cc1 (stereo unspecified) | 1
CC(C)(C)c1ccc(CN(Cc2ccccc2)C2=NCC(CI)S2)cc1.I (stereo unspecified) | 1
CC(C)c1ccc(CN(Cc2ccccc2)C2=NCC(CI)S2)cc1.I (stereo unspecified) | 1

Now consider the entry below.
Take the molecule Br.COc1ccc(CN(Cc2ccccc2)C2=NCC(CBr)S2)cc1 (stereo unspecified) and say whether its Ki is less than 4000 nM.
0
